Tested on: Enterococcus faecalis
assay-method-text: MIC, serial dilution method on Iso-Sensitest agar
Type: cell-based
condition-parameters: 20 h, strain 27101, 37° C., about 20 hours
Listing of recorded MIC by entry.
quantity: MIC (µg/mL)

[[record]]
molecule = "CN1COc2c(N3CC4CC=CC(N)C4C3)c(F)c(N)c3c(=O)c(C(=O)O)cn1c23 (stereo not shown)"
target_under_test = "Enterococcus faecalis"
qualifier = "="
recorded_measurement = 0.03

[[record]]
molecule = "CNC1C=CCC2CN(c3c(F)c(N)c4c(=O)c(C(=O)O)cn5c4c3OCN5C)CC21 (stereo not shown)"
target_under_test = "Enterococcus faecalis"
qualifier = "="
recorded_measurement = 0.06

[[record]]
molecule = "CN1COc2c(N3C[C@H]4[C@H](N)CC=C[C@H]4C3)c(F)c(N)c3c(=O)c(C(=O)O)cn1c23 (relative stereo)"
target_under_test = "Enterococcus faecalis"
qualifier = "≤"
recorded_measurement = 0.015

[[record]]
molecule = "CC1C=CC(N)C2CN(c3c(F)c(N)c4c(=O)c(C(=O)O)cn5c4c3OCN5C)CC12 (stereo not shown)"
target_under_test = "Enterococcus faecalis"
qualifier = "≤"
recorded_measurement = 0.015


----------
Tested on: Micrococcus luteus
assay-method-text: MIC, serial dilution method on Iso-Sensitest agar
Format: cell-based
condition-parameters: strain 9341, 37° C., about 20 hours
quantity: MIC

[[record]]
compound = "CNC1C=CCC2CN(c3c(F)c(N)c4c(=O)c(C(=O)O)cn5c4c3OCN5C)CC21 (stereo not shown)"
quantity = "MIC"
recorded_measurement = "≤ 0.015 µg/mL"

[[record]]
compound = "CN1COc2c(N3C[C@H]4[C@H](N)CC=C[C@H]4C3)c(F)c(N)c3c(=O)c(C(=O)O)cn1c23 (relative stereo)"
quantity = "MIC"
recorded_measurement = "0.5 µg/mL"

[[record]]
compound = "CC1C=CC(N)C2CN(c3c(F)c(N)c4c(=O)c(C(=O)O)cn5c4c3OCN5C)CC12 (stereo not shown)"
quantity = "MIC"
recorded_measurement = "≤ 0.015 µg/mL"

[[record]]
compound = "CN1COc2c(N3CC4CC=CC(N)C4C3)c(F)c(N)c3c(=O)c(C(=O)O)cn1c23 (stereo not shown)"
quantity = "MIC"
recorded_measurement = "≤ 0.015 µg/mL"


----------
Test system: E. coli
assay-method-text: MIC, serial dilution method on Iso-Sensitest agar
Type: cell-based
condition-parameters: Escherichia coli; strain Neumann; 37° C., about 20 hours
quantity: MIC

[[record]]
compound = "CN1COc2c(N3C[C@H]4[C@H](N)CC=C[C@H]4C3)c(F)c(N)c3c(=O)c(C(=O)O)cn1c23 (relative stereo)"
target_under_test = "E. coli"
recorded_measurement = "≤ 0.015 µg/mL"

[[record]]
compound = "CC1C=CC(N)C2CN(c3c(F)c(N)c4c(=O)c(C(=O)O)cn5c4c3OCN5C)CC12 (stereo not shown)"
target_under_test = "E. coli"
recorded_measurement = "≤ 0.015 µg/mL"

[[record]]
compound = "CNC1C=CCC2CN(c3c(F)c(N)c4c(=O)c(C(=O)O)cn5c4c3OCN5C)CC21 (stereo not shown)"
target_under_test = "E. coli"
recorded_measurement = "0.03 µg/mL"

[[record]]
compound = "CN1COc2c(N3CC4CC=CC(N)C4C3)c(F)c(N)c3c(=O)c(C(=O)O)cn1c23 (stereo not shown)"
target_under_test = "E. coli"
recorded_measurement = "≤ 0.015 µg/mL"


----------
Listing of recorded MIC by entry.
Test system: Providencia sp.
assay-method-text: MIC, serial dilution method on Iso-Sensitest agar
Format: cell-based
condition-parameters: 20 h, strain 12012, 37° C., about 20 hours
quantity: MIC (µg/mL)

[[record]]
compound = "CNC1C=CCC2CN(c3c(F)c(N)c4c(=O)c(C(=O)O)cn5c4c3OCN5C)CC21 (stereo not shown) [Example 4]"
target_under_test = "Providencia sp."
u = "µg/mL"
qualifier = "="
recorded_measurement = 0.06

[[record]]
compound = "CN1COc2c(N3C[C@H]4[C@H](N)CC=C[C@H]4C3)c(F)c(N)c3c(=O)c(C(=O)O)cn1c23 (relative stereo) [Example 11]"
target_under_test = "Providencia sp."
u = "µg/mL"
qualifier = "≤"
recorded_measurement = 0.015

[[record]]
compound = "CC1C=CC(N)C2CN(c3c(F)c(N)c4c(=O)c(C(=O)O)cn5c4c3OCN5C)CC12 (stereo not shown) [Example 7]"
target_under_test = "Providencia sp."
u = "µg/mL"
qualifier = "="
recorded_measurement = 0.03

[[record]]
compound = "CN1COc2c(N3CC4CC=CC(N)C4C3)c(F)c(N)c3c(=O)c(C(=O)O)cn1c23 (stereo not shown) [Example 5]"
target_under_test = "Providencia sp."
u = "µg/mL"
qualifier = "≤"
recorded_measurement = 0.015


----------
Listing of recorded MIC by entry.
Test system: Klebsiella pneumoniae
assay-method-text: MIC, serial dilution method on Iso-Sensitest agar
Assay type: cell-based
condition-parameters: strain 63; 37° C., about 20 hours
quantity: MIC (µg/mL)

[[record]]
molecule = "CC1C=CC(N)C2CN(c3c(F)c(N)c4c(=O)c(C(=O)O)cn5c4c3OCN5C)CC12 (stereo not shown)"
target_under_test = "Klebsiella pneumoniae"
qualifier = "="
recorded_measurement = 0.03

[[record]]
molecule = "CN1COc2c(N3CC4CC=CC(N)C4C3)c(F)c(N)c3c(=O)c(C(=O)O)cn1c23 (stereo not shown)"
target_under_test = "Klebsiella pneumoniae"
qualifier = "="
recorded_measurement = 0.03

[[record]]
molecule = "CNC1C=CCC2CN(c3c(F)c(N)c4c(=O)c(C(=O)O)cn5c4c3OCN5C)CC21 (stereo not shown)"
target_under_test = "Klebsiella pneumoniae"
qualifier = "="
recorded_measurement = 0.06

[[record]]
molecule = "CN1COc2c(N3C[C@H]4[C@H](N)CC=C[C@H]4C3)c(F)c(N)c3c(=O)c(C(=O)O)cn1c23 (relative stereo)"
target_under_test = "Klebsiella pneumoniae"
qualifier = "≤"
recorded_measurement = 0.015

